Assign pKi to each entry below.
Assay: Binding affinity towards Thrombin
Set-up: species or system Homo sapiens
Remember the convention: pKi equals -log10 of concentration in molar.

Query block: What does the data say about its pKi? Entry: O=C(NCC1CCN(c2ccncc2)CC1)c1ccc(Cl)c(OCCc2ccc(Cl)cn2)c1
Result block: 5.27

Query block: What does the data say about its pKi? Entry: O=C(NCC1CCN(c2ccncc2)CC1)c1ccc(F)c(OCCc2ccc(Cl)cc2)c1
Result block: 5.25

Query block: What does the data say about its pKi? Entry: O=C(NCC1CCN(c2ccncc2)CC1)c1ccc(Cl)c(OCCc2ccc(Br)cc2)c1
Result block: 5.33

Query block: What does the data say about its pKi? Entry: NC(=O)c1cc(OCCc2ccc(Cl)cc2Cl)cc(C(=O)NCC2CCN(c3ccncc3)CC2)c1
Result block: 5.29

Query block: What does the data say about its pKi? Entry: COc1ccc(C(=O)NCC2CCN(c3ccncc3)CC2)cc1OCCc1ccc(Cl)cc1
Result block: 5.28

Query block: What does the data say about its pKi? Entry: O=C(NCC1CCN(c2ccncc2)CC1)c1ccc(Cl)c(OCCc2ccc(Cl)cc2Cl)c1
Result block: 5.51

Query block: What does the data say about its pKi? Entry: O=C(NCC1CCN(c2ccncc2)CC1)c1ccc(Cl)c(OCCc2ccc(Cl)cc2)c1
Result block: 5.56

Query block: What does the data say about its pKi? Entry: COc1cc(C(=O)NCC2CCN(c3ccncc3)CC2)cc(OCCc2ccc(Cl)cc2Cl)c1C
Result block: 5.76

Query block: What does the data say about its pKi? Entry: CCOc1cc(C(=O)NCC2CCN(c3ccncc3)CC2)cc(OCCc2ccc(Cl)cc2Cl)c1Br
Result block: 4.43

Query block: What does the data say about its pKi? Entry: COc1cc(C(=O)NCC2CCN(c3ccncc3)CC2)cc(OCCc2ccc(Cl)cc2Cl)c1OC
Result block: 5.39

Query block: What does the data say about its pKi? Entry: COc1cc(C(=O)NCC2CCN(c3ccncc3)CC2)cc(OCCc2ccc(Cl)cc2)c1Cl
Result block: 5.43

Query block: What does the data say about its pKi? Entry: COc1ccc(C(=O)NCC2CCN(c3ccnc(C)c3)CC2)cc1OCCc1ccc(Cl)cc1Cl
Result block: 4.68

Query block: What does the data say about its pKi? Entry: CCOc1ccc(C(=O)NCC2CCN(c3ccncc3)CC2)cc1OCCc1ccc(Cl)cc1Cl
Result block: 5.20

Query block: What does the data say about its pKi? Entry: Cc1ccc(C(=O)NCC2CCN(c3ccncc3)CC2)cc1OCCc1ccc(Cl)cc1Cl
Result block: 5.31

Query block: What does the data say about its pKi? Entry: CNc1ccc(C(=O)NCC2CCN(c3ccncc3)CC2)cc1OCCc1ccc(Cl)cc1Cl
Result block: 5.96

Query block: What does the data say about its pKi? Entry: COc1cc(C(=O)NCC2CCN(c3ccncc3)CC2)cc(OCCc2ccc(Cl)cc2Cl)c1Cl
Result block: 5.74

Query block: What does the data say about its pKi? Entry: COc1cc(C(=O)NCC2CCN(c3ccncc3)CC2)cc(OCCc2ccc(Cl)cc2Cl)c1Br
Result block: 5.64

Query block: What does the data say about its pKi? Entry: O=C(NCC1CCN(c2ccncc2)CC1)c1cc(OCCc2ccc(Cl)cc2Cl)c2c(c1)OCO2
Result block: 5.78

Query block: What does the data say about its pKi? Entry: O=C(NCC1CCN(c2ccncc2)CC1)c1ccc(C(F)(F)F)c(OCCc2ccc(Cl)cc2Cl)c1
Result block: 4.50
